- TESTED_ON: SCD5 (Homo sapiens)
- Construct: host or cells: S. cerevisiae ole1Δ strain (W303 pdr1Δ pdr3Δ background), plasmid pRS316 with TDH3 promoter and CYC1 terminator
- Sequence (Q86SK9 whole entry): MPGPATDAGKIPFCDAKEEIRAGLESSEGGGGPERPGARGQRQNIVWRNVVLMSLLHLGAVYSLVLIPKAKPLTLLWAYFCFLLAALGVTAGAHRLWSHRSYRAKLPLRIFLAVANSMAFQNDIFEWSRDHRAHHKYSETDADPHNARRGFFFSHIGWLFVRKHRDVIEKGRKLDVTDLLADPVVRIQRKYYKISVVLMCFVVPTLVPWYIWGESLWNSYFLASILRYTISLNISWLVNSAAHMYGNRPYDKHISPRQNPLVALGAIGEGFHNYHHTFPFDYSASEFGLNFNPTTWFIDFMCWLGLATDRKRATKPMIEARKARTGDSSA
- TEST_METHOD_NOTES: Growth inhibition of humanized yeast strain expressing SCD5 as sole desaturase
- Type: cell-based
- MEASUREMENT_CONDITIONS: humanized yeast strain expressing SCD5
Kindly supply the reported SCD5 % Max Inhibition values for the records listed here.
One number for each entry, in %.

Cn1ncc2ccc(-c3noc(C4CCN(C(=O)c5ccnc(-c6ccccc6)c5)CC4)n3)cc21 [Compound 208] = 5.68

For each listed entry, give its SCD5 % Max Inhibition.
1. COc1ccc(C(=O)NCC(=O)N2CCC(c3nc(-c4ccc5c(C)nn(C)c5c4)no3)CC2)nc1 [Compound 151]
2. CCN1C(=O)COc2ccc(-c3nc(C4(c5ccc(OC)cc5)CC4)no3)cc21 [Compound 158]
3. Cc1nn(C)c2cc(-c3noc(C4CCN(C(=O)CNC(=O)c5ccccc5)C4)n3)ccc12 (stereo not shown) [Compound 209]
4. COc1ccccc1C(=O)NCC(=O)N1CCC(c2nc(-c3ccc4c(C)nn(C)c4c3)no2)CC1 [Compound 152]

Result block:
1. 20.68
2. 91.96
3. 78.88
4. 60.91

For each listed entry, give its SCD5 % Max Inhibition.
1. CCN(Cc1nc(-c2ccc3c(c2)N(CC)C(=O)CO3)no1)C(=O)Cc1cccc2ccccc12 [Compound 494]
2. COc1cc(OC)cc(-c2noc(C3CCN(C(=O)CNC(=O)c4ccccc4)CC3)n2)c1 [Compound 187]
3. CC(C)n1ncc2ccc(-c3noc(C4CCN(C(=O)CNC(=O)c5ccccc5)CC4)n3)cc21 [Compound 171]
4. COc1ccc(-c2noc(C3CCN(C(=O)[C@H]4CC(=O)N(c5ccc(C)c(C)c5)C4)CC3)n2)cc1 [Compound 64]
5. CCOc1ccc(-c2noc(C3CCN(C(=O)[C@H]4CC[C@H](c5ccccc5)N4)CC3)n2)cc1OC [Compound 119]

Result block:
73.76
2.91
−0.14
42.05
93.93

For each listed entry, give its SCD5 % Max Inhibition.
1. CCOc1ccc(-c2noc(C3CCN(C(=O)N4CCCCC4)CC3)n2)cc1OC [Compound 53]
2. CCOc1cnc(-c2noc(C3CCN(C(=O)CN4Cc5ccccc5C4=O)CC3)n2)cc1OC [Compound 147]
3. N#Cc1cccc(N2CC(C(=O)N3CCC(c4nc(N5CC6(COC6)C5)no4)CC3)CC2=O)c1 (stereo not shown) [Compound 332]
4. Cc1nn(C)c2cc(-c3noc(C4CCN(C(=O)CNC(=O)c5cccnc5)CC4)n3)ccc12 [Compound 197]
5. COc1ccc(-c2noc(N3CCC(C(=O)NCCc4ccccc4)CC3)n2)cc1OC [Compound 49]

Result block:
1. 2.94
2. 86.70
3. 31.5
4. 61.44
5. 63.18
